Target System: human HSD1 (recombinant HSD1) (Homo sapiens)
Sequence (P28845 whole entry): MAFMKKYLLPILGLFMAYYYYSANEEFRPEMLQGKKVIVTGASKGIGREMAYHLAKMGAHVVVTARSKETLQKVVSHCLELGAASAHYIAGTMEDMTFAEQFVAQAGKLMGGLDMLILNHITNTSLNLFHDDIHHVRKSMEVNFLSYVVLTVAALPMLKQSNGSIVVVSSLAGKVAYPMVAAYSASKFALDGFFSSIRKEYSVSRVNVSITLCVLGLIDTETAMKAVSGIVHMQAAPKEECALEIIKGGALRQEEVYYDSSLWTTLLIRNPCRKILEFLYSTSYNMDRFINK
Protocol Description: In vitro HSD1 activity inhibitory action, SPA of cortisone to cortisol conversion
Condition Description: recombinant human HSD1 0.1 μg/ml, 500 μM NADPH, 16 nM 3H cortisone, room temperature 90 min, read-out: hHSD1 IC50
Protocol: In Vitro HSD1 (Hydroxysteroid Dehydrogenase 1) Activity Inhibitory Action The HSD1 inhibitory activity was examined by quantitative determination by an SPA (scintillation proximity assay) system of the suppressive action on the conversion from cortisone to cortisol using human HSD1 (hereinafter recombinant HSD1) expressed using a baculo-virus system as an enzyme source. […] The IC50 value was analyzed using a computer-based curve fitting soft.
Endpoint Name: IC50

- Compound: "CC(=O)N1CCN(c2ccc(-c3nnc(C4(c5ccccc5)CC4)n3C)c(Cl)c2)CC1 [Ex. 1-49]"
  Reported Measurement: "< 10 nM"
- Compound: "CC(C)n1c(N2CCC(Oc3ncc(Cl)cc3Cl)CC2)nnc1C1(c2ccccc2)CC1 [Ex. 2-80]"
  Reported Measurement: "< 10 nM"
- Compound: "COC(=O)c1ccc(OC2CCN(c3nnc(C4(c5ccccc5)CC4)n3C)CC2)cc1 [Ex. 2-47]"
  Reported Measurement: "10 to 1000 nM"
- Compound: "Cn1c(N2CCC(C(=O)O)CC2)nnc1C1(c2ccccc2)CC1 [Ex. 2-5]"
  Reported Measurement: "10 to 1000 nM"
- Compound: "COCCn1c(N2CCC(Oc3ncc(Cl)cc3Cl)CC2)nnc1C1(c2ccccc2)CC1 [Ex. 2-72]"
  Reported Measurement: "10 to 1000 nM"

----------
compounds and their reported pIC50
Target System: human HSD1 (recombinant HSD1) (Homo sapiens)
Protocol Description: In vitro HSD1 activity inhibitory action, SPA of cortisone to cortisol conversion
Condition Description: recombinant human HSD1 0.1 μg/ml, 500 μM NADPH, 16 nM 3H cortisone, room temperature 90 min, read-out: hHSD1 IC50
Procedure: In Vitro HSD1 (Hydroxysteroid Dehydrogenase 1) Activity Inhibitory Action The HSD1 inhibitory activity was examined by quantitative determination by an SPA (scintillation proximity assay) system of the suppressive action on the conversion from cortisone to cortisol using human HSD1 (hereinafter recombinant HSD1) expressed using a baculo-virus system as an enzyme source. […] The IC50 value was analyzed using a computer-based curve fitting soft.
pIC50: −log10 of the molar value.

- Compound: "Cn1c(-c2ccc(N3CCNCC3)cc2Cl)nnc1C1(c2ccccc2)CC1"
  pIC50: "6.00 to 8.00"
- Compound: "CNC(=O)c1cccc(OC2CCN(c3nnc(C4(c5ccccc5)CC4)n3C)CC2)c1"
  pIC50: "6.00 to 8.00"
- Compound: "COC(=O)c1cc(OC2CCN(c3nnc(C4(c5ccccc5)CC4)n3C)CC2)ccc1Cl"
  pIC50: "6.00 to 8.00"
- Compound: "Cn1c(-c2ccc(N3CCCC(O)C3)cc2Cl)nnc1C1(c2ccccc2)CC1 (stereo not drawn)"
  pIC50: "> 8.00"
- Compound: "Cn1c(N2CCN(c3ccc(Cl)cc3)CC2)nnc1C1(c2ccccc2)CC1"
  pIC50: "6.00 to 8.00"
- Compound: "Cn1c(-c2ccc(C(=O)N3CCOCC3)cc2Cl)nnc1C1(c2ccccc2)CC1"
  pIC50: "6.00 to 8.00"
- Compound: "CN(C(=O)OC(C)(C)C)C1CCN(c2nnc(C3(c4ccccc4)CC3)n2C)CC1"
  pIC50: "6.00 to 8.00"
- Compound: "Cn1c(N2CCC(Oc3cccc(CO)c3)CC2)nnc1C1(c2ccccc2)CC1"
  pIC50: "6.00 to 8.00"
- Compound: "CC(C)n1c(-c2ccc(N3CCOC3=O)cc2)nnc1C1(c2ccc(F)cc2)CC1"
  pIC50: "> 8.00"
- Compound: "CN(c1ccccn1)c1nnc(C2(c3ccccc3)CC2)n1C"
  pIC50: "> 8.00"
- Compound: "Cn1c(N2CCC(Oc3ncc(Cl)cc3Cl)CC2)nnc1C1(c2ccc(Cl)cc2)CC1"
  pIC50: "6.00 to 8.00"
- Compound: "CC(C)C(=O)Nc1ccc(-c2nnc(C3(c4ccccc4)CC3)n2C)c(Cl)c1"
  pIC50: "> 8.00"
- Compound: "Cn1c(-c2ccc(OCCO)cc2Cl)nnc1C1(c2ccccc2)CC1"
  pIC50: "> 8.00"
- Compound: "Cn1c(-c2ccc(C(N)=O)cc2Cl)nnc1C1(c2cccs2)CC1"
  pIC50: "> 8.00"
- Compound: "COC(=O)c1ccc(-c2nnc(C3(c4ccccc4)CC3)n2C)c(Cl)c1"
  pIC50: "> 8.00"
- Compound: "Cn1c(C2(c3ccccc3)CC2)nnc1[C@H]1CC[C@H](Oc2ccc(Cl)cc2Cl)CC1"
  pIC50: "6.00 to 8.00"
- Compound: "Cn1c(-c2ccc(Cl)cc2Cl)nnc1C1(c2ccccc2)CC1"
  pIC50: "> 8.00"
- Compound: "COC(=O)CCn1c(C2CCN(c3c(Cl)cncc3Cl)CC2)nnc1C1(c2ccccc2)CC1"
  pIC50: "> 8.00"

Measured values drawn from patent US8153631B2 for this set.
